- target: Short transient receptor potential channel 6 (Mus musculus) (UniProt Q61143)
- Sequence (Q61143 whole entry, looked up): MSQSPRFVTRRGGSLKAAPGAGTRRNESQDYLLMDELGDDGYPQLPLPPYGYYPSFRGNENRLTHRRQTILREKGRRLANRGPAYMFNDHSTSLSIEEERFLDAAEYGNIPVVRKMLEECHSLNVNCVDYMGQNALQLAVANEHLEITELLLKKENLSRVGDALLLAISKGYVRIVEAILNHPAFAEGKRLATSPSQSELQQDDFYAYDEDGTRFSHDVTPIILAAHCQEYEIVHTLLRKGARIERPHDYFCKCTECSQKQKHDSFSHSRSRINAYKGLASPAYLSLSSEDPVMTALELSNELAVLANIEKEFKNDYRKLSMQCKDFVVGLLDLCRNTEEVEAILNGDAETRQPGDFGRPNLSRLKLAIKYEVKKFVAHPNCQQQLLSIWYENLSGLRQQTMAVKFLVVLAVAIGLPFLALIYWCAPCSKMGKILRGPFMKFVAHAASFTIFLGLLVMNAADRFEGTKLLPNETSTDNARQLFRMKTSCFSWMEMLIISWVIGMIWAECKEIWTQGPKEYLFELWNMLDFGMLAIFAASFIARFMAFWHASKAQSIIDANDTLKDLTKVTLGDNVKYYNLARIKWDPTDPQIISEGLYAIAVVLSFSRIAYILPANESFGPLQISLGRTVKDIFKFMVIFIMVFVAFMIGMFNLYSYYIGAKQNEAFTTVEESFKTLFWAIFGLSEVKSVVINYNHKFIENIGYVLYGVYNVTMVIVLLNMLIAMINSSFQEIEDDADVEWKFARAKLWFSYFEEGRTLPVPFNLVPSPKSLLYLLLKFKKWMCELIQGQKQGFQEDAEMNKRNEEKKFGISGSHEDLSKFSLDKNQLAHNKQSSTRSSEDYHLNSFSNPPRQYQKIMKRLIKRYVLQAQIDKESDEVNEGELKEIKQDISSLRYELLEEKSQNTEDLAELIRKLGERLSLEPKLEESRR
- assayExplanation: mouse TRPC6 channel inhibitors, primary screen, cell-based, HEK293, membrane potential dye (AID 2553)
- conditions: ACh-evoked depolarization, at 10 µM
Hit rate of the full screen: of about 310,000 compounds, about 3,300 (1.1%) were called active.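 The calls were made as follows: active = B-score under library mean minus 3 SD, initial fluorescence not abnormally high, positive integrated signal ratio; inactive = the rest.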 The sample holds actives, similar compounds and a random draw of the others, so the mix is not that of the screen.
Please reply with one of these outcomes: YES = active, NO = inactive

Consider the following illustrative entries.
Task: Hi team, can someone confirm the assay call for CC1(C)Cc2c(sc3nc4n(c(=N)c23)CCCCC4)CO1 ?
Output: NO

Task: Hi team, can someone confirm the assay call for COc1ccc(CNC(=O)C(=O)NCC2OCCN2C(=O)c2ccc(OC)cc2)cc1 (stereo unspecified) ?
Output: NO

Task: Hi team, can someone confirm the assay call for CC(C)c1cc(C(=O)N/N=C/c2ccoc2)c(O)c(C(C)C)c1 ?
Output: NO

Task: Hi team, can someone confirm the assay call for c1ccc(-n2nnnc2-c2cccnc2)cc1 ?
Output: NO

Task: Hi team, can someone confirm the assay call for COc1cc2c(cc1OC)C(/C=C/c1ccco1)=NCC2 ?
Output: YES

Next:
Task: Hi team, can someone confirm the assay call for NNC(=O)C1CCCn2c1nc1sc3c(c1c2=O)CCCC3 (stereo unspecified) ?
Output: NO

Task: Hi team, can someone confirm the assay call for COc1ccc(OC)c(CNC(=O)Cn2nc(C)c3c(C)n(-c4ccc(C)cc4)nc3c2=O)c1 ?
Output: NO

Task: Hi team, can someone confirm the assay call for FC(F)(F)c1nc(-c2ccccc2)ncc1-c1nnnn1-c1ccccc1 ?
Output: NO

Task: Hi team, can someone confirm the assay call for CCn1cc(C(=O)OCC(=O)Nc2cccc(C)c2)c(=O)c2ccc(C)nc21 ?
Output: NO

Task: Hi team, can someone confirm the assay call for COc1ccc(Cl)cc1C(=O)NNC(=S)NC(=O)/C=C/c1ccco1 ?
Output: NO

Task: Hi team, can someone confirm the assay call for COc1cc2c(cc1OC)C(c1cccc([N+](=O)[O-])c1)=NCC2 ?
Output: NO

Hello, the source for this data is PubChem BioAssay AID2553, in case you need it.
